These data points were gathered from paper PMC12677052.

STUDY SYSTEM: sulfonylurea receptor 1 (SUR1) (Homo sapiens, UniProt Q09428)
Construct: human FLAG-tagged SUR1 (f-SUR1) coexpressed with human Kir6.2 in COSm6 cells; with Kir6.2 (KCNJ11)
Sequence (Q09428 whole entry): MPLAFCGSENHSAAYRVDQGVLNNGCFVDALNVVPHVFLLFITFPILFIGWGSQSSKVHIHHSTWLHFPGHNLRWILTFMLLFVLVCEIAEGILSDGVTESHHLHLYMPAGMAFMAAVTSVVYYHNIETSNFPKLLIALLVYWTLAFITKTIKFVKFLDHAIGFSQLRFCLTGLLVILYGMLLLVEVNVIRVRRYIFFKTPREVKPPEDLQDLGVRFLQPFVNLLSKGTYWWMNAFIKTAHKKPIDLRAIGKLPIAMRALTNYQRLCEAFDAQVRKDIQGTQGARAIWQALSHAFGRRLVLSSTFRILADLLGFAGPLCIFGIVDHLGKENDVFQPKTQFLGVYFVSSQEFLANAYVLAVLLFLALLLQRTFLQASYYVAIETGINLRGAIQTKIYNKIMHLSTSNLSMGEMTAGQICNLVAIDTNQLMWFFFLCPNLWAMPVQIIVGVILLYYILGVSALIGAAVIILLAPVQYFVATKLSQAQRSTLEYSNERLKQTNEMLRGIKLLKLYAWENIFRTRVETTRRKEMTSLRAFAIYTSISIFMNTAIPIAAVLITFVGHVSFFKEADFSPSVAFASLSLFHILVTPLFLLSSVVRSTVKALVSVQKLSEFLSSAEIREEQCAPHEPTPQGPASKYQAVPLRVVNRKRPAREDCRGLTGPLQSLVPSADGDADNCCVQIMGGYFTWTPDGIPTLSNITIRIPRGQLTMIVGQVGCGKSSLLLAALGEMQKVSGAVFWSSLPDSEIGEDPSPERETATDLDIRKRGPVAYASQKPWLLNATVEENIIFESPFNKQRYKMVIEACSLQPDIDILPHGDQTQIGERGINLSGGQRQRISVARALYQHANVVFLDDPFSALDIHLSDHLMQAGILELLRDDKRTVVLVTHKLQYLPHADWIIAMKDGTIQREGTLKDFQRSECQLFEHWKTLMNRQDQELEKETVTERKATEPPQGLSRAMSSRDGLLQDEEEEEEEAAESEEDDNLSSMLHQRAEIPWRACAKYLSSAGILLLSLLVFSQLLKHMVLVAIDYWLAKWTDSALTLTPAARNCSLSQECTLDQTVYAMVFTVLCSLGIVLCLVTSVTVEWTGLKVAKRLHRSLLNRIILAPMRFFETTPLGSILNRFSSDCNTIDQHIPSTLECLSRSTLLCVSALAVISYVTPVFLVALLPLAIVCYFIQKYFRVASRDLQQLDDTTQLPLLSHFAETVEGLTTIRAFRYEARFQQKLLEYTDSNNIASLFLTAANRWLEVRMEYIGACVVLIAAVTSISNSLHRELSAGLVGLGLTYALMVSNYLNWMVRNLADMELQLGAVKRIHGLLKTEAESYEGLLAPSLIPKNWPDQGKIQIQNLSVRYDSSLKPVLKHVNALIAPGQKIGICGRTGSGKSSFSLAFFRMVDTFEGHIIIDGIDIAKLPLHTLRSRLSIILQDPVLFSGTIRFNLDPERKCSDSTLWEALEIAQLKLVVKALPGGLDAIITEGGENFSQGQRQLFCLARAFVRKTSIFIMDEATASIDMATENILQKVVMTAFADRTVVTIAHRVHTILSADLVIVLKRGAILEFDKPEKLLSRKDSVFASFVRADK
Sequence (Q14654 whole entry partner): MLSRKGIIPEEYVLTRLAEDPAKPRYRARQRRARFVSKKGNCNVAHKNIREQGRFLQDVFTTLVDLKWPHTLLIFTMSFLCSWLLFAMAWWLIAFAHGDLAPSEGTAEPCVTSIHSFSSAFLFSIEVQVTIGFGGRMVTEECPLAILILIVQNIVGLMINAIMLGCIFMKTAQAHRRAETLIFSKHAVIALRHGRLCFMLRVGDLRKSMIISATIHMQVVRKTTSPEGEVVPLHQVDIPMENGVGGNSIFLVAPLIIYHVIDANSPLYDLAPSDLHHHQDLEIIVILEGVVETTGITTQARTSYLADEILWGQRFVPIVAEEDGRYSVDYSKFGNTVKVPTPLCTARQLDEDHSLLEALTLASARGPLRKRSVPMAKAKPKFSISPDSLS
RUN DESCRIPTION: inside-out patch-clamp dose-response
MEASUREMENT LABEL: EC50 (µM)
Express it in µM; write the number only.

[ask] # EC50 lookup, item Nc1ncnc2c1ncn2[C@@H]1O[C@H](COP(=O)(O)OP(=O)(O)O)[C@@H](O)[C@H]1O [MgADP]
[reply] 62.2
